studyTarget: HIF-1 (HIF-1alpha/HIF-1beta (ARNT) heterodimer) (Homo sapiens?, UniProt Q16665;P27540 Q16665:1-826,P27540:2-789)
Sequence (Q16665 whole entry, chain 1 of 2): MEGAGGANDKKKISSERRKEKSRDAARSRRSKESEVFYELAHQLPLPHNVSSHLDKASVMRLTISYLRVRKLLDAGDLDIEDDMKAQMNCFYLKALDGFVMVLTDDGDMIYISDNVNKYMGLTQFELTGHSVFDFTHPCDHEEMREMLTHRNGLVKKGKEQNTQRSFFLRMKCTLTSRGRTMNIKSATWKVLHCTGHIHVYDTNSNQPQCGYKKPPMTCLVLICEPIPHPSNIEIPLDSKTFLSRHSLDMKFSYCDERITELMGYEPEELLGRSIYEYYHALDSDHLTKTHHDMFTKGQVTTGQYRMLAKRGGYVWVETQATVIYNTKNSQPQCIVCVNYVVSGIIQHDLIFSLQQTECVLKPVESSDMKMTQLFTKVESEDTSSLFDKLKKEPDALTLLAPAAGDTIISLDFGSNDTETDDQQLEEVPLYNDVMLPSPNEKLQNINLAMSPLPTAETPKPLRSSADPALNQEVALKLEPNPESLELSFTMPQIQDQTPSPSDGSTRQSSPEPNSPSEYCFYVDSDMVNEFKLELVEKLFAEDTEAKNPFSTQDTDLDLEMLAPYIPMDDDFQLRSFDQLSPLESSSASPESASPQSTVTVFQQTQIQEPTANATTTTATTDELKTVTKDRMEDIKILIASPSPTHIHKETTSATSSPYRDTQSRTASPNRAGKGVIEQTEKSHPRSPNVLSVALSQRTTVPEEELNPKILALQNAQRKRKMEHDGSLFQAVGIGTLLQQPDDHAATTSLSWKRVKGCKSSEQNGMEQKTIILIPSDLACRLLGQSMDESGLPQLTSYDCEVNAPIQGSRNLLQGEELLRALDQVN
Sequence (P27540 2-789, chain 2 of 2): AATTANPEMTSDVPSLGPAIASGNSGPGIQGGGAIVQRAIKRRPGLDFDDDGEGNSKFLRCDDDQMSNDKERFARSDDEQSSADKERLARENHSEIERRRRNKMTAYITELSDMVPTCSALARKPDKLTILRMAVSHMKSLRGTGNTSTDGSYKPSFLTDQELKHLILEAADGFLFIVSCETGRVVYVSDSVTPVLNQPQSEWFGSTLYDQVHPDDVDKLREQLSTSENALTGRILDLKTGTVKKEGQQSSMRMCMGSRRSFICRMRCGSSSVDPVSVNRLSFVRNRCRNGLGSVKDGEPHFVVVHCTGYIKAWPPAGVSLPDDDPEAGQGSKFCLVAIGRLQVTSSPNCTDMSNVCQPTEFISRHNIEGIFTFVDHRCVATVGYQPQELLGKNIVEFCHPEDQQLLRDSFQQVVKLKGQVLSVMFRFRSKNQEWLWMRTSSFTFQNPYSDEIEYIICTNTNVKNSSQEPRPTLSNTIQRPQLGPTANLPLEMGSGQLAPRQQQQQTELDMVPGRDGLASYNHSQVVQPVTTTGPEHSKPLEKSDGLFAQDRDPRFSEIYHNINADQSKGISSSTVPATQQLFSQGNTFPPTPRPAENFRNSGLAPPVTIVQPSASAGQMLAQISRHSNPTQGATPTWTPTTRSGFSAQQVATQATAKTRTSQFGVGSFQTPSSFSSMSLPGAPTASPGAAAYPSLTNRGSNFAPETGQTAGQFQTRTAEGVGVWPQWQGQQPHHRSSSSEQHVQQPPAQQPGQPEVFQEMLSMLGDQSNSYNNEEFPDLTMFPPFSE
assayComment: competition; TransAM
runConditions: protein: extract; tags: none (endogenous, nuclear extract)

binder: decoy 981 (dsDNA) DNA 1: CCAGCGTACGTGGCTCAGG DNA 2: CCTGAGCCACGTACGCTGG
binding signal, ratio: 1.7
--
binder: decoy 827/828 (dsDNA) DNA 1: AGGTTACGTGCGGACA DNA 2: TGTCCGCACGTAACCT
binding signal, ratio: 4.48
--
binder: decoy 975 (dsDNA) DNA 1: CCACCGTACGTGCCTCAGG DNA 2: CCTGAGGCACGTACGGTGG
binding signal, ratio: 1.63
--
binder: decoy 847/848 (dsDNA) DNA 1: GGAACAACGTGGAATTAG DNA 2: CTAATTCCACGTTGTTCC
binding signal, ratio: 3.02
--
binder: decoy 899 (dsDNA) DNA 1: CGAGCGTACGTGCCTCAGG DNA 2: CCTGAGGCACGTACGCTCG
binding signal, ratio: 1.34
--
binder: decoy 963 (dsDNA) DNA 1: CCAGCCTACGTGCCTCAGG DNA 2: CCTGAGGCACGTAGGCTGG
binding signal, ratio: 1.17

These data points were gathered from patent US20050215503.
